- STUDY TARGET: T1, MPP6, Q9NZW5
- T1 sequence (Q9NZW5 125-219, limits assumed, looked up): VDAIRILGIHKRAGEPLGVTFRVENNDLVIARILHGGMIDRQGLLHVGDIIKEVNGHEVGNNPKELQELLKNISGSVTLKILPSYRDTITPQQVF
- MEASUREMENT NOTES: holdup assay
- Set-up: key: below the threshold = too weak to quantify, mostly under pKd 3.1 to 4
- RUN PARAMETERS: plain residues with an end cap or a label only (N-terminal biotin on a linker: ado-ado)
RECORDED ENDPOINT: pKd

BINDER	RECORDED ENDPOINT	VALUE OBSERVED
TKGPRGPTRV [SAPCD1, Q5SSQ6]	pKd	below the threshold
GSGAVEMESV [AQP6, Q13520]	pKd	below the threshold
QSLNRMEYIV [JAG1, P78504]	pKd	3.9
LPHGHSTTRV [NLGN4X, Q8N0W4]	pKd	below the threshold
